Molecular target: Phosphatidylinositol 4,5-bisphosphate 3-kinase catalytic subunit alpha isoform (Homo sapiens, UniProt P42336)
Sequence (P42336 whole entry, canonical isoform): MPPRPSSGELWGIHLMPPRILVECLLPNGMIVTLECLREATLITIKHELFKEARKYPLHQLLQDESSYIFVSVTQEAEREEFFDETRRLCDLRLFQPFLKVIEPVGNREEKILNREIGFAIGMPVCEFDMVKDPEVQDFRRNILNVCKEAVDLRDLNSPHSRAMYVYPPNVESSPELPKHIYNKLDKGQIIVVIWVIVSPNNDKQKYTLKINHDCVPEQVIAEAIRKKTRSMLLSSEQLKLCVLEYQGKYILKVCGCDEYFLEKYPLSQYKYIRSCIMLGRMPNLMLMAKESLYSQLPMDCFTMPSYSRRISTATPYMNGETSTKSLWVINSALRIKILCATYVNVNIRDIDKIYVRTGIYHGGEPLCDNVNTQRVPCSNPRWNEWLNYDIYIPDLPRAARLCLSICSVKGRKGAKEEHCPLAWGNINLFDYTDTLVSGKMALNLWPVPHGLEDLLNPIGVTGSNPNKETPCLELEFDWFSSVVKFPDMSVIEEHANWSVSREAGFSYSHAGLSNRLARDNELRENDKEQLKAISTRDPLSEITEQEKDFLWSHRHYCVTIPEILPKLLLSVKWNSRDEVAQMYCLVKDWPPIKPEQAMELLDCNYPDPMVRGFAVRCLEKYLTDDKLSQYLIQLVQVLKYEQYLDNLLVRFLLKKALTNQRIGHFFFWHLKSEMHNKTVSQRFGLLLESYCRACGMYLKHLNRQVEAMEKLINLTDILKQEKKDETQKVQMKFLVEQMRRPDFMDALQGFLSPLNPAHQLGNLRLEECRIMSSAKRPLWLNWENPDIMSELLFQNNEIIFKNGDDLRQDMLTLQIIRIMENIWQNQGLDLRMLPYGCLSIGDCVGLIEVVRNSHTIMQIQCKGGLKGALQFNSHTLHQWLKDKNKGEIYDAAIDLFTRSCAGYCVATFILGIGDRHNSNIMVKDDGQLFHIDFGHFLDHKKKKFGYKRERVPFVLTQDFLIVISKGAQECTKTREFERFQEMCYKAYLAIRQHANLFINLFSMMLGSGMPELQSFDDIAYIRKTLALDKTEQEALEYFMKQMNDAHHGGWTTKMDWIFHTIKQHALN
Assay: Inhibition of PI3Kalpha (unknown origin)
// values below are reported IC50
Observation type: IC50

[[record]]
compound_structure_string = "CN(C)CCN(C)c1ccc(C#N)cc1S(=O)(=O)c1nc(-c2cnn3ccc(Br)cc23)cs1"
observed_result = "370 nM"

[[record]]
compound_structure_string = "Cc1ccc([N+](=O)[O-])cc1S(=O)(=O)/N=c1/scc(-c2cnn3ccc(Br)cc23)n1C"
observed_result = "> 1000 nM"

[[record]]
compound_structure_string = "Cc1ccc([N+](=O)[O-])cc1S(=O)(=O)N(C)c1nc(-c2cnn3ccc(Br)cc23)cs1"
observed_result = "> 1000 nM"

[[record]]
compound_structure_string = "Cc1ccc([N+](=O)[O-])cc1C(=O)N[C@H]1CCN(Cc2cnn3ccc(C#N)cc23)C1"
observed_result = "> 1000 nM"

[[record]]
compound_structure_string = "Cc1ccc([N+](=O)[O-])cc1C(=O)N[C@@H]1CCN(Cc2cnn3ccc(C#N)cc23)C1"
observed_result = "> 1000 nM"

[[record]]
compound_structure_string = "Cc1ccc([N+](=O)[O-])cc1C(=O)NC1CCN(Cc2cnn3ccc(C#N)cc23)CC1"
observed_result = "> 1000 nM"

[[record]]
compound_structure_string = "O=[N+]([O-])c1cccc(Sc2nc(-c3cnn4ccc(Br)cc34)cs2)c1"
observed_result = "> 1000 nM"

[[record]]
compound_structure_string = "Cc1ccc([N+](=O)[O-])cc1S(=O)(=O)N1CCC(c2cnn3ccc(Br)cc23)CC1"
observed_result = "> 1000 nM"

[[record]]
compound_structure_string = "O=[N+]([O-])c1cccc(S(=O)(=O)c2nc(-c3cnn4ccc(Br)cc34)cs2)c1"
observed_result = "630 nM"


###

Target: Phosphatidylinositol 4,5-bisphosphate 3-kinase catalytic subunit alpha isoform (Homo sapiens, UniProt P42336)
Assay: Inhibition of PI3Kalpha (unknown origin)
pIC50: −log10 of the molar value.
// values below are reported pIC50
Observation type: pIC50

[[record]]
compound = "Cc1ccc([N+](=O)[O-])cc1S(=O)(=O)N1CCCC(c2cnn3ccc(Br)cc23)C1 (stereo not drawn)"
observed_result = 6.23

[[record]]
compound = "Cc1ccc([N+](=O)[O-])cc1Nc1nc(-c2cnn3ccc(Br)cc23)cs1"
observed_result = "< 6.00"

[[record]]
compound = "Cc1ccc([N+](=O)[O-])cc1S(=O)(=O)N[C@@H]1CCN(Cc2cnn3ccc(C#N)cc23)C1"
observed_result = "< 6.00"


###

Target: Phosphatidylinositol 4,5-bisphosphate 3-kinase catalytic subunit delta isoform (Homo sapiens)
Sequence (O00329 whole entry, canonical isoform): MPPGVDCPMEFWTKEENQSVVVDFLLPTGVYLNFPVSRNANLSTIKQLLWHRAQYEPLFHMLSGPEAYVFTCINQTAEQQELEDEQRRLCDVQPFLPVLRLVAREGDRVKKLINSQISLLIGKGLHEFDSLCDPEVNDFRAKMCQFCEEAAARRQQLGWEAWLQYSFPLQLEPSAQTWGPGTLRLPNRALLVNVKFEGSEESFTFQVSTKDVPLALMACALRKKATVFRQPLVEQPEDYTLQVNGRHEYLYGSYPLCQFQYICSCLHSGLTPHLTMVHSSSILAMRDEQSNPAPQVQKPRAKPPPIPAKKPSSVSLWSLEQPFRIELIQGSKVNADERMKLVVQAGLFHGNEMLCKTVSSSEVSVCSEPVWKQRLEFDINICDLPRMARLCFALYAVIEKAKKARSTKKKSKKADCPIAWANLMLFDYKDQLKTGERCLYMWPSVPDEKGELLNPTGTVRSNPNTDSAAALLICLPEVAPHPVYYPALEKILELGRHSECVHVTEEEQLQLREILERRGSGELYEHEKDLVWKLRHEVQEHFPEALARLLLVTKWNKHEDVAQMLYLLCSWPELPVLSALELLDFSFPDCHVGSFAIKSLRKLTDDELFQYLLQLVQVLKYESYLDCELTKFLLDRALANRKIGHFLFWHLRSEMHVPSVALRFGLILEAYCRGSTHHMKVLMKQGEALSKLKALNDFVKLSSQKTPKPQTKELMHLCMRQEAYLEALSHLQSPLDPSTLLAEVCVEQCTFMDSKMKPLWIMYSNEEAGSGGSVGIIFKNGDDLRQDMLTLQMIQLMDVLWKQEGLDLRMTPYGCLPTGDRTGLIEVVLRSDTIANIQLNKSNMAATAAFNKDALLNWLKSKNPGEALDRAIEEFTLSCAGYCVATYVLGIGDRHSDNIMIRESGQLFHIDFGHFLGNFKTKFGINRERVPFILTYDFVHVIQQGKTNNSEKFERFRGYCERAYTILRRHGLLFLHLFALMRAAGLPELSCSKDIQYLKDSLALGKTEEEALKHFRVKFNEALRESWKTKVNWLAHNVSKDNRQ
Assay: Inhibition of PI3Kdelta (unknown origin)
Observation type: IC50

[[record]]
molecule = "Cc1ccc([N+](=O)[O-])cc1S(=O)(=O)Cc1nc(-c2cnn3ccc(Br)cc23)cs1"
observation_type = "IC50"
observed_result = "0.09 µM"

[[record]]
molecule = "N#Cc1ccc(F)c(S(=O)(=O)c2nc(-c3cnn4ccc(Br)cc34)cs2)c1"
observation_type = "IC50"
observed_result = "0.44 µM"

[[record]]
molecule = "Cc1ccc([N+](=O)[O-])cc1CS(=O)(=O)c1nc(-c2cnn3ccc(Br)cc23)cs1"
observation_type = "IC50"
observed_result = "> 1 µM"

[[record]]
molecule = "Cc1ccc([N+](=O)[O-])cc1C(=O)N1CCN(Cc2cnn3ccc(C#N)cc23)CC1"
observation_type = "IC50"
observed_result = "> 1 µM"

[[record]]
molecule = "Cc1ccc([N+](=O)[O-])cc1S(=O)(=O)N[C@@H]1CCN(Cc2cnn3ccc(C#N)cc23)C1"
observation_type = "IC50"
observed_result = "> 1 µM"

[[record]]
molecule = "Cc1ccc([N+](=O)[O-])cc1S(=O)(=O)N1CCN(Cc2cnn3ccc(C#N)cc23)CC1"
observation_type = "IC50"
observed_result = "> 1 µM"

[[record]]
molecule = "Cc1ccc([N+](=O)[O-])cc1S(=O)(=O)/N=c1/scc(-c2cnn3ccc(Br)cc23)n1C"
observation_type = "IC50"
observed_result = "> 1 µM"

[[record]]
molecule = "Cc1ccc([N+](=O)[O-])cc1S(=O)(=O)N1CCC(c2cnn3ccc(Br)cc23)C1 (stereo unspecified)"
observation_type = "IC50"
observed_result = "> 1 µM"

[[record]]
molecule = "Cc1ccc([N+](=O)[O-])cc1S(=O)(=O)N(C)c1nc(-c2cnn3ccc(Br)cc23)cs1"
observation_type = "IC50"
observed_result = "1.55 µM"

[[record]]
molecule = "Cc1ccc([N+](=O)[O-])cc1Nc1nc(-c2cnn3ccc(Br)cc23)cs1"
observation_type = "IC50"
observed_result = "> 1 µM"

[[record]]
molecule = "Cc1ccc([N+](=O)[O-])cc1C(=O)NC1CCN(Cc2cnn3ccc(C#N)cc23)CC1"
observation_type = "IC50"
observed_result = "> 1 µM"

[[record]]
molecule = "Cc1ccccc1[S+]([O-])c1nc(-c2cnn3ccc(Br)cc23)cs1 (stereo unspecified)"
observation_type = "IC50"
observed_result = "> 1 µM"

[[record]]
molecule = "Cc1ccc([N+](=O)[O-])cc1C(=O)NC1CN(Cc2cnn3ccc(C#N)cc23)C1"
observation_type = "IC50"
observed_result = "> 1 µM"

[[record]]
molecule = "CN(C)CCN(C)c1ccc(C#N)cc1S(=O)(=O)c1nc(-c2cnn3ccc(Br)cc23)cs1"
observation_type = "IC50"
observed_result = "2 µM"

[[record]]
molecule = "N#Cc1cc(S(=O)(=O)c2nc(-c3cnn4ccc(Br)cc34)cs2)ccc1F"
observation_type = "IC50"
observed_result = "0.15 µM"

[[record]]
molecule = "Cc1ccc([N+](=O)[O-])cc1C(=O)N1CCC(c2cnn3ccc(Br)cc23)CC1"
observation_type = "IC50"
observed_result = "> 1 µM"

[[record]]
molecule = "Cc1ccc([N+](=O)[O-])cc1C(=O)N[C@@H]1CCCN(Cc2cnn3ccc(C#N)cc23)C1"
observation_type = "IC50"
observed_result = "> 1 µM"

[[record]]
molecule = "N#Cc1ccc(F)c([S+]([O-])c2nc(-c3cnn4ccc(Br)cc34)cs2)c1 (stereo unspecified)"
observation_type = "IC50"
observed_result = "0.2 µM"

[[record]]
molecule = "O=[N+]([O-])c1cccc(Sc2nc(-c3cnn4ccc(Br)cc34)cs2)c1"
observation_type = "IC50"
observed_result = "> 1 µM"

[[record]]
molecule = "Cc1ccc([N+](=O)[O-])cc1-c1nc(-c2cnn3ccc(Br)cc23)cs1"
observation_type = "IC50"
observed_result = "> 1 µM"

[[record]]
molecule = "Cc1ccc([N+](=O)[O-])cc1S(=O)(=O)N1CCCC(c2cnn3ccc(Br)cc23)C1 (stereo unspecified)"
observation_type = "IC50"
observed_result = "> 1 µM"


###

Biological target: Phosphatidylinositol 4,5-bisphosphate 3-kinase catalytic subunit alpha isoform (Homo sapiens, UniProt P42336)
Experiment: Inhibition of PI3Kalpha (unknown origin)
pIC50: −log10 of the molar value.
// values below are reported pIC50
Observation type: pIC50

[[record]]
compound = "CN(C)CCN(C)c1ccc(S(=O)(=O)c2nc(-c3cnn4ccc(Br)cc34)cs2)cc1C#N"
comparator = "="
observed_result = 5.61

[[record]]
compound = "CN(C)CCN(C)c1ccc(C#N)cc1[S+]([O-])c1nc(-c2cnn3ccc(Br)cc23)cs1 (stereo not given)"
comparator = "="
observed_result = 5.39

[[record]]
compound = "Cc1ccc([N+](=O)[O-])cc1C(=O)N1CCN(Cc2cnn3ccc(C#N)cc23)CC1"
comparator = "<"
observed_result = 6.00

[[record]]
compound = "Cc1ccc([N+](=O)[O-])cc1C(=O)N1CCC(c2cnn3ccc(Br)cc23)CC1"
comparator = "<"
observed_result = 6.00

[[record]]
compound = "Cc1ccc([N+](=O)[O-])cc1S(=O)(=O)NC1CN(Cc2cnn3ccc(C#N)cc23)C1"
comparator = "<"
observed_result = 6.00


###

// values below are reported pIC50
Molecular target: Phosphatidylinositol 4,5-bisphosphate 3-kinase catalytic subunit beta isoform (Homo sapiens, UniProt P42338)
Sequence (P42338 whole entry, canonical isoform): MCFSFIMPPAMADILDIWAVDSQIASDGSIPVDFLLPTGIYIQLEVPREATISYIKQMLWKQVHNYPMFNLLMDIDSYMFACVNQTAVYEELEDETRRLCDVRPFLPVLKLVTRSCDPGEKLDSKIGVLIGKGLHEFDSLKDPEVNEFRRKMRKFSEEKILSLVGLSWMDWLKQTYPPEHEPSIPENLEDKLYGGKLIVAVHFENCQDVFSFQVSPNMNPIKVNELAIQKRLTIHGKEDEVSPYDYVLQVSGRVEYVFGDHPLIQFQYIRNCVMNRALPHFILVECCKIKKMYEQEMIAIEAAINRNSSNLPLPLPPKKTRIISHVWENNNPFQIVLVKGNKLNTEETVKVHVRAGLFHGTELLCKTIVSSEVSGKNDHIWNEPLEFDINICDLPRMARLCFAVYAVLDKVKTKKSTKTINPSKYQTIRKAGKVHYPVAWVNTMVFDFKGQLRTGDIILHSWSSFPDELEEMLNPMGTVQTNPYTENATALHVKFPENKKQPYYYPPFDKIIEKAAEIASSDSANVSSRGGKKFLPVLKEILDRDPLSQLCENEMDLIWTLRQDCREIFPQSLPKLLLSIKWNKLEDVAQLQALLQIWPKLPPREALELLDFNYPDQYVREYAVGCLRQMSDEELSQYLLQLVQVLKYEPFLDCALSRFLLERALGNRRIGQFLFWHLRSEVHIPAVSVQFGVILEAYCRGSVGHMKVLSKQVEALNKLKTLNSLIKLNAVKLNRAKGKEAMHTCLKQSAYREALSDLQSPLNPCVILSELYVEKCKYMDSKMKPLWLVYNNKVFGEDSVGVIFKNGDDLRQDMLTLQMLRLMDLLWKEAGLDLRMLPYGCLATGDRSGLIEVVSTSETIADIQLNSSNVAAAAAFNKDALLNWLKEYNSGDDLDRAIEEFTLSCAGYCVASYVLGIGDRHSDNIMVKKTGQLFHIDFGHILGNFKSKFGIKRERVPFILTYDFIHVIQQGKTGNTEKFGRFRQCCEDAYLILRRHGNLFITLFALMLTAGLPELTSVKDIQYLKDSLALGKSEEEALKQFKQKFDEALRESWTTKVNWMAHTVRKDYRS
Experiment: Inhibition of PI3Kbeta (unknown origin)
pIC50: −log10 of the molar value.
Observation type: pIC50

[[record]]
compound_structure_string = "CN(C)CCN(C)c1ccc(C#N)cc1S(=O)(=O)c1nc(-c2cnn3ccc(Br)cc23)cs1"
observed_result = 5.45

[[record]]
compound_structure_string = "Cc1ccc([N+](=O)[O-])cc1S(=O)(=O)NC1CN(Cc2cnn3ccc(C#N)cc23)C1"
observed_result = "< 6.00"

[[record]]
compound_structure_string = "Cc1ccc([N+](=O)[O-])cc1-c1nc(-c2cnn3ccc(Br)cc23)cs1"
observed_result = "< 6.00"

[[record]]
compound_structure_string = "Cc1ccc([N+](=O)[O-])cc1S(=O)(=O)/N=c1/scc(-c2cnn3ccc(Br)cc23)n1C"
observed_result = "< 6.00"

[[record]]
compound_structure_string = "Cc1ccc([N+](=O)[O-])cc1S(=O)(=O)Nc1nc(-c2cnn3ccc(Br)cc23)cs1"
observed_result = "< 6.00"


// data source = ChEMBL document CHEMBL3132856
